These data points were gathered from ChEMBL document CHEMBL1614631.

Assay: Dose normalised AUC in human after po administration
Conditions: in vivo
experimental-readout: log10 of DNAUC (log10 of the value in kg·min/L)
Could you please treat all values as log10 of DNAUC in kg·min/L?

Determine its reported log10 of DNAUC: CCN(CC)CC(=O)Nc1c(C)cccc1C
1.58

Quote log10 of DNAUC reported for CCCCCNC(=O)c1coc([C@H]2[C@@H](Cc3ccccc3CCC(=O)O)[C@@H]3CC[C@H]2O3)n1 please.
1.89

Return the recorded log10 of DNAUC value; entry: CC(C(=O)O)c1ccc(C(=O)c2cccs2)cc1 (stereo not given)
2.79

Entry CN(C)CCCC1(c2ccc(F)cc2)OCc2cc(C#N)ccc21 (stereo not given) needs its log10 of DNAUC filled in; supply it.
2.30

Please give measured log10 of DNAUC of the following entry: COc1ccc(C(CN(C)C)C2(O)CCCCC2)cc1 (stereo not given)
0.00

###

Assay: Dose normalised AUC in rat after po administration
Conditions: in vivo
For each entry below, report its DNAUC value.
Report as: number unit

Give the value of DNAUC reported for the following: Cc1nc(=O)c(C#N)c(NCc2cccnc2)[nH]1
20 kg·min/L

Please report DNAUC for the following compound: CCC1(C)CC(=O)NC1=O (stereo unspecified) [ETHOSUXIMIDE]
285.71 kg·min/L

Give DNAUC for the following compound: CC(C)c1nc(CN(C)C(=O)N[C@H](C(=O)N[C@@H](Cc2ccccc2)C[C@H](O)[C@H](Cc2ccccc2)NC(=O)OCc2cncs2)C(C)C)cs1
41.59 kg·min/L

Please give the documented DNAUC of CC1COc2c(N3CCN(C)CC3)c(F)cc3c(=O)c(C(=O)O)cn1c23 (stereo unspecified)
32.85 kg·min/L

Name the recorded DNAUC of the item C1=C(c2ccccc2)CCN(C[C@@H]2CCC=C(c3ccccc3)C2)C1 in your answer.
2.65 kg·min/L

Return reported DNAUC. Input compound: O=C(O)CCc1nc(-c2ccccc2)c(-c2ccccc2)o1
0.04 kg·min/L

Supply DNAUC value. Item: N[C@@H]1[C@H]2CN(c3nc4c(cc3F)c(=O)c(C(=O)O)cn4-c3ccc(F)cc3F)C[C@@H]12
51 kg·min/L

Output measured DNAUC for this item: CC(C)n1c(/C=C/C(O)CC(O)CC(=O)O)c(-c2ccc(F)cc2)c2ccccc21 (stereo unspecified)
195 kg·min/L

Indicate its recorded DNAUC; the compound in question is CC(=O)[C@H]1CC[C@H]2[C@@H]3CC[C@H]4C[C@](C)(O)CC[C@]4(C)[C@H]3CC[C@]12C
0.76 kg·min/L

Indicate its recorded DNAUC; the compound in question is NCC1(CC(=O)O)CCCCC1
87.72 kg·min/L

Output DNAUC of O=C(O)c1cn(C2CC2)c2cc(N3CCNCC3)c(F)cc2c1=O
9.36 kg·min/L

Output measured DNAUC for this item: CC[C@H]1OC(=O)[C@H](C)[C@@H](O[C@H]2C[C@@](C)(OC)[C@@H](O)[C@H](C)O2)[C@H](C)[C@@H](O[C@@H]2O[C@H](C)C[C@H](N(C)C)[C@H]2O)[C@](C)(O)C[C@@H](C)CN(C)[C@H](C)[C@@H](O)[C@]1(C)O
11.42 kg·min/L

Kindly indicate its recorded DNAUC. Item: CCN[C@@H](C)Cc1cccc(C(F)(F)F)c1
7.2 kg·min/L

// fetch DNAUC given entry COC(=O)C1=C(C)NC(C)=C(C(=O)OCCN(C)Cc2ccccc2)C1c1cccc([N+](=O)[O-])c1 (stereo unspecified)
1.1 kg·min/L

Quickly give me recorded DNAUC for CCCCCNC(=O)c1coc([C@H]2[C@@H](Cc3ccccc3CCC(=O)O)[C@@H]3CC[C@H]2O3)n1
2.86 kg·min/L

Supply measured DNAUC of COc1ccc(C(CN(C)C)C2(O)CCCCC2)cc1 (stereo unspecified) in your reply.
1.97 kg·min/L
